Target: Acetylcholinesterase (Homo sapiens, UniProt P22303)
Sequence (P22303 whole entry): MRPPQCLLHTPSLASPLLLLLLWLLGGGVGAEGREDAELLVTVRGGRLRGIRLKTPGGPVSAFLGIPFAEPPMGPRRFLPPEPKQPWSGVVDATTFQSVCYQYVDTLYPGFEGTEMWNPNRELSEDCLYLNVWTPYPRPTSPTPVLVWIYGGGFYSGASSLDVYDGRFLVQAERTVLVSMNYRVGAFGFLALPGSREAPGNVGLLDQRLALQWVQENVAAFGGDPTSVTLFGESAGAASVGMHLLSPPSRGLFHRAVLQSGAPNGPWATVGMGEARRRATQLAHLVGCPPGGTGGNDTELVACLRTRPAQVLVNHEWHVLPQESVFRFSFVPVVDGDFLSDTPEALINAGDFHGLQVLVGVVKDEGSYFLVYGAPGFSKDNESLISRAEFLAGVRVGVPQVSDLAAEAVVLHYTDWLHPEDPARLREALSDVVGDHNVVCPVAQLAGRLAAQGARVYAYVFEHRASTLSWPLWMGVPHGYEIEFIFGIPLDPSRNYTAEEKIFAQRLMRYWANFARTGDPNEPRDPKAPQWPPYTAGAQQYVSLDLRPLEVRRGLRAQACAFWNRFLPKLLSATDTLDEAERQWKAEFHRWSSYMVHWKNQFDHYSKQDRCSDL
Test: Inhibition of human acetylcholine esterase-induced amyloid beta (1 to 40) aggregation by ThT-based fluorescence assay
Parameter measured: IC50 (µM)
Respond numerically; units are µM and should not be typed.

**Q:** Return reported IC50; argument: CN(CCCCNc1c2c(nc3c(NC(=O)CNC(=O)CC[C@H](NC(=O)CNC(=O)OCc4ccccc4)C(=O)N[C@@H](Cc4ccccc4)C(=O)OCc4ccccc4)cccc13)CCCC2)CCCNc1c2c(nc3ccccc13)CCCC2
**A:** 113

----------
Quick note: these are Ki numbers for system: UniProt P22303
Respond numerically; units are nM and should not be typed.

**Q:** Find the measured Ki: item Nc1cccc2c(NCCCCCCCCNc3c4c(nc5ccccc35)CCCC4)c3c(nc12)CCCC3 , target or system UniProt P22303.
**A:** 0.23

**Q:** Then what about the compound CN(CCCCNc1c2c(nc3c(NC(=O)CNC(=O)CC[C@H](NC(=O)CNC(=O)OCc4ccccc4)C(=O)N[C@@H](Cc4ccccc4)C(=O)OCc4ccccc4)cccc13)CCCC2)CCCNc1c2c(nc3ccccc13)CCCC2 ?
**A:** 1.48

**Q:** Then what about the compound O=[N+]([O-])c1cccc2c(NCCCCCCCCNc3c4c(nc5ccccc35)CCCC4)c3c(nc12)CCCC3 ?
**A:** 0.78

Data provenance: ChEMBL document CHEMBL3098022
